Recorded values, source patent US20030091627A1.

assay: Solubility of clarithromycin as a function of pH (tested in water without a buffer); assay type: physicochemical; conditions: aqueous buffer; pH 5.4, water without a buffer; read-out: Solubility

{"columns": ["smiles-repr", "solubility"],
 "data": [
  ["CC[C@H]1OC(=O)[C@H](C)[C@@H](O[C@H]2C[C@@](C)(OC)[C@@H](O)[C@H](C)O2)[C@H](C)[C@@H](O[C@@H]2O[C@H](C)C[C@H](N(C)C)[C@H]2O)[C@](C)(OC)C[C@@H](C)C(=O)[C@H](C)[C@@H](O)[C@]1(C)O", "~5500 µg/mL"]
]}
